The measurements presented in this section are drawn from patent US20160108049A1.

Target: PDE4B1 (Homo sapiens)
Construct: made in house; host or cells: SF21 insect cells (baculovirus; virus made in SF9 cells, pCR-Bac vector)
Sequence (Q07343 whole entry): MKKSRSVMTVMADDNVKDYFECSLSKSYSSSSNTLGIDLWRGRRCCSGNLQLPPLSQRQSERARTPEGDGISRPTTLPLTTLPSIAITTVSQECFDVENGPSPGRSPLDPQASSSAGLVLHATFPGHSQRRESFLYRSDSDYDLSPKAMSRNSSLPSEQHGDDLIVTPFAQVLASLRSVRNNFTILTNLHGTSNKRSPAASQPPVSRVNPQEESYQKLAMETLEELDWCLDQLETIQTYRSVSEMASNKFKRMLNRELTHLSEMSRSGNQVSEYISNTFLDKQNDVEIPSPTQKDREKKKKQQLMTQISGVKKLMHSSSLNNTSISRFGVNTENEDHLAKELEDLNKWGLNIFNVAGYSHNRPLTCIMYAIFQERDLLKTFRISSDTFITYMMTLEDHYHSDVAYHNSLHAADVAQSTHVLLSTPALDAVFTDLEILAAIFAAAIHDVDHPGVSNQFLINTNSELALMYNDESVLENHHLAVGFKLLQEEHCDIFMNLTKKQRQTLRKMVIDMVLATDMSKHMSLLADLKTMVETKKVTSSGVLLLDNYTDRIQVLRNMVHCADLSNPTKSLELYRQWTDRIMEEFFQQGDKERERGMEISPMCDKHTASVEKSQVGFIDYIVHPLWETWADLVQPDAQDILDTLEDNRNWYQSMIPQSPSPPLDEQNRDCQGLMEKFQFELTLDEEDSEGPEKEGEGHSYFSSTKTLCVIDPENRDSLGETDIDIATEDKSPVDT
Assay: Inhibition of PDE4 activity (PDE4B1, SPA assay)
Assay type: biochemical
Conditions: recombinant PDE4B1, 0.5 μM cAMP; read-out: PDE4B1 Inhibitory values measured as -logIC50 (converted)
RESULT TYPE: IC50

| CHEM SMILES | IC50 |
| --- | --- |
| COc1ccc(C2=NN(C3CCN(C(=O)[C@@H](Cc4cccc(Cl)c4)NC(=O)c4c[nH]c5c(-c6c(OCC7CC7)ccc7c6OCO7)ncnc45)CC3)C(=O)[C@@H]3CCCC[C@H]23)cc1OC | 1 to 10 nM |
| COc1ccc(C2=NN(C3CCN(C(=O)[C@@H](Cc4ccc(F)c(F)c4)NC(=O)c4c(C)[nH]c5c(-c6c(OCC7CC7)ccc7c6OCO7)ncnc45)CC3)C(=O)[C@@H]3CCCC[C@H]23)cc1OC | < 1 nM |
| COc1ccc(C2=NN(C3CCN(C(=O)[C@H](NC(=O)c4c(C)[nH]c5c(-c6c(OCC7CC7)ccc7c6OCO7)ncnc45)C(C)C)CC3)C(=O)[C@@H]3CCCC[C@H]23)cc1OC | 1 to 10 nM |
| COc1ccc(C2=NN(C3CCN(C(=O)[C@@H](Cc4ccc(C(N)=O)cc4)NC(=O)c4c[nH]c5c(-c6c(OCC7CC7)ccc7c6OCO7)ncnc45)CC3)C(=O)[C@@H]3CCCC[C@H]23)cc1OC | 1 to 10 nM |
| COc1ccc(C2=NN(C3CCN(C(=O)[C@H](CCC(=O)N4CCCCC4)NC(=O)c4c(C)[nH]c5c(-c6c(OCC7CC7)ccc7c6OCO7)ncnc45)CC3)C(=O)[C@@H]3CCCC[C@H]23)cc1OC | 1 to 10 nM |

Task: Query IC50 on PDE4B1 (Homo sapiens) for COc1ccc(C2=NN(C3CCN(C(=O)[C@@H](Cc4ccc(-c5ccccc5)cc4)NC(=O)c4c[nH]c5c(-c6c(OCC7CC7)ccc7c6OCO7)ncnc45)CC3)C(=O)[C@@H]3CCCC[C@H]23)cc1OC
Result: < 1 nM

Task: Query IC50 on PDE4B1 (Homo sapiens) for COc1ccc(C2=NN(C3CCN(C(=O)[C@@H](Cc4ccccc4C(F)(F)F)NC(=O)c4c(C)[nH]c5c(-c6c(OCC7CC7)ccc7c6OCO7)ncnc45)CC3)C(=O)[C@@H]3CCCC[C@H]23)cc1OC
Result: 1 to 10 nM

Task: Query IC50 on PDE4B1 (Homo sapiens) for COc1ccc(C2=NN(C3CCN(C(=O)[C@@H](CN(C)C)NC(=O)c4c[nH]c5c(-c6c(OCC7CC7)ccc7c6OCO7)ncnc45)CC3)C(=O)[C@@H]3CCCC[C@H]23)cc1OC
Result: 1 to 10 nM
